Entry source: the supplement of paper PMC4466140

Parameter: SPOT peptide array binding signal intensity. Scope: all listed entries.
target: CaNbp2; experiment: SPOT peptide array binding signal intensity (averaged, normalized) (arbitrary units (background-subtracted, floor 0; scale differs between SH3 domains)); higher = stronger binding of the SH3 domain to the peptide
Note: the reply should be a number with no unit written.

>>> numeric_result("IRMPSNPALPKKLLN")
1060
>>> numeric_result("KRRAPPPVPKKPSSR")
2600
>>> numeric_result("LKRITSPPLPPRADS")
47
>>> numeric_result("LRWRHKFFLPAIAAI")
116
>>> numeric_result("PAPPPPPRASRPTPN")
39.5

Task: Requested read-out: SPOT peptide array binding signal intensity. Entry: "SRQAIPPPVPNRPGG"
Result: 50.5

Task: Can you look up the measured SPOT peptide array binding signal intensity of "PLRRTVMSLPGNHDI" for me?
Result: 1640
